# test-system: Omi PDZ (GST-Omi PDZ fusion protein) (Homo sapiens, UniProt O43464)
# Construct: DNA fragment encoding hOmi PDZ domain was cloned into BamHI/XhoI sites of pGEX6P-3 plasmid, creating a GST-hOmiPDZ fusion protein; made in house; host or cells: E. coli BL21(DE3), plasmid pGEX6P-3
# Sequence (O43464 359-458): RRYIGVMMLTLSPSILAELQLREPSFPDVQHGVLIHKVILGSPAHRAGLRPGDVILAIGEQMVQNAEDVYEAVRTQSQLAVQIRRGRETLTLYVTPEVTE
# test: Competition ELISA affinity assay: peptide blocks GST-Omi PDZ binding to immobilized biotinylated peptide
# conditions: IC50 (μM), competition ELISA; 20 nM GST-Omi PDZ; immobilized biotinylated high affinity peptide; mean
Where no end group is shown, it is not given here.
readout-type: IC50

// query Fill in the blank: the reported IC50 of Ac-SWTMFWV [hOmi_c1, S W T M F W V] is ____.
// result 3.3 µM

// query Fill in the blank: the reported IC50 of Ac-MDIELVMI [Mxi2, M D I E L V M I, reference compound] is ____.
// result > 500 µM

---

# test-system: Omi PDZ (GST-Omi PDZ fusion protein) (Homo sapiens)
# Construct: DNA fragment encoding hOmi PDZ domain was cloned into BamHI/XhoI sites of pGEX6P-3 plasmid, creating a GST-hOmiPDZ fusion protein; made in house; host or cells: E. coli BL21(DE3), plasmid pGEX6P-3
# test: Competition ELISA affinity assay: peptide blocks GST-Omi PDZ binding to immobilized biotinylated peptide
# conditions: competition ELISA; 20 nM GST-Omi PDZ; immobilized biotinylated high affinity peptide; mean; read-out: IC50
Where a SMILES comes first, the peptide text is derived from it.
readout-type: IC50
Respond with the figure and its unit, in that order.

// query Please state recorded IC50 (tested on Omi PDZ (GST-Omi PDZ fusion protein) (Homo sapiens)) of NC(=O)[C@H](Cc1c[nH]c2ccccc12)NC(=O)[C@H](Cc1c[nH]c2ccccc12)NC(=O)[C@@H](N)Cc1c[nH]cn1 [hOmi_n1_t9, H W W] (H-His-Trp-Trp-NH2)
// result 108 µM

// query Please state recorded IC50 (tested on Omi PDZ (GST-Omi PDZ fusion protein) (Homo sapiens)) of CC(=O)N[C@@H](Cc1ccccc1)C(=O)N[C@@H](Cc1c[nH]c2ccccc12)C(=O)N[C@H](C(=O)O)C(C)C [hOmi_c1_t4, F W V] (Ac-Phe-Trp-Val-OH)
// result 118 µM

---

# test-system: Omi PDZ (GST-Omi PDZ fusion protein) (Homo sapiens, UniProt O43464)
# Construct: DNA fragment encoding hOmi PDZ domain was cloned into BamHI/XhoI sites of pGEX6P-3 plasmid, creating a GST-hOmiPDZ fusion protein; made in house; host or cells: E. coli BL21(DE3), plasmid pGEX6P-3
# test: Competition ELISA affinity assay: peptide blocks GST-Omi PDZ binding to immobilized biotinylated peptide
# conditions: competition ELISA; 20 nM GST-Omi PDZ; immobilized biotinylated high affinity peptide; mean; read-out: IC50
# Method: Affinity Assays—The binding affinities of peptides for Omi PDZ were determined as IC50 values using a previously described competition ELISA (18). […] After 1 h incubation, the plates were washed with PBS, 0.05% Tween 20, incubated for 30 min with HRP/anti-GST antibody (1:10,000) in PBT buffer, washed again, and detected with 3,3′,5,5′-Tetramethyl-benzidine/H2O2 (TMB) peroxidase substrate. The binding affinity of this ligand to Omi PDZ was measured with ELISA competition assay. […]
Reported IC50 values are given for each entry in this list.
Field: numeric (µM). Do not append units.

>  <substance>
H-SHWWGGWL-NH2 [hOmi_n1_t1, S H W W G G W L]

>  <test-system>
Omi PDZ (GST-Omi PDZ fusion protein) (Homo sapiens, UniProt O43464)

>  <IC50 / µM>
17.6

$$$$

Now for a further substance.
// query Fill in the blank: the reported IC50 of Ac-GQYYFV-OH [PDZ-Opt, G Q Y Y F V, reference compound] is ____.
// result 17.6
